The following molecules are listed with their measured pIC50 values.
molecular target: Tumor necrosis factor (Homo sapiens, UniProt P01375); assay: The compound was tested in vitro for inhibitory activity against Tumor necrosis factor alpha from human PMBC cell line by ELISA test.
Sequence (P01375 whole entry): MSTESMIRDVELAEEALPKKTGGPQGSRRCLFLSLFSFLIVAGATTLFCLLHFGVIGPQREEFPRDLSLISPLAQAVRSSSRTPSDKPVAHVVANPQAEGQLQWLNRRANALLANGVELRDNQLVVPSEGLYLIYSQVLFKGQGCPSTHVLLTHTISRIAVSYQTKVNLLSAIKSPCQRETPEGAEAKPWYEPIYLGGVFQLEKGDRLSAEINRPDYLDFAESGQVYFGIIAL
pIC50: −log10 of the molar value.
testReadout: pIC50

1) CCOC(=O)CCCn1cnc2ccc(N)cc2c1=O = 5.40
2) CCOC(=O)CCCCn1ccc2cc(OC)c(OC)cc2c1=O = 4.68
3) CCOC(=O)CCCn1cnc2cc(OC)c(OC)c([N+](=O)[O-])c2c1=O = 4.96
4) CCOC(=O)CCCn1cnc2cc(OC)c(OC)c(N)c2c1=O = 4.70
5) CCOC(=O)CCn1cnc2cc(OC)c(OC)cc2c1=O = 5.05
6) CCOC(=O)CCCn1cnc2cc(N)ccc2c1=O = 5.05
7) CCOC(=O)CCCn1c(Cl)nc2cc(OC)c(OC)cc2c1=O = 4.32
8) CCOC(=O)CCCN1CNc2cc(N)ccc2C1=O = 5.30
9) COc1cc2ccnc(Nc3cccc(Br)c3)c2cc1OC = 4.43
10) CCOC(=O)CCCn1ccc2cc(OC(=O)OCC)c(OC(=O)OCC)cc2c1=O = 4.96
11) CCOC(=O)CCCn1c(N=[N+]=[N-])nc2cc(OC)c(OC)cc2c1=O = 4.85
12) COc1cc2ccnc(NCCO)c2cc1OC = 4.26
13) CCOC(=O)CCCn1cc(C#N)c2cc(OC)c(OC)cc2c1=O = 5.30

====

The following compounds are listed with their measured pIC50 values.
biological target: UniProt:P01375; assay: The compound was tested in vitro for inhibitory activity against Tumor necrosis factor alpha from human PMBC cell line by ELISA test.
pIC50: −log10 of the molar value.
testReadout: pIC50

1. CCOC(=O)CCCn1ccc2cc(OC)c(OC)cc2c1=O = 5.30
2. CCOC(=O)CCCn1cc(Br)c2cc(O)c(O)cc2c1=O = 6.00
3. COc1cc2ccnc(Nc3ccc(Br)cc3)c2cc1OC = 4.42
4. CCOC(=O)CCCn1cc(F)c2cc(OC)c(OC)cc2c1=O = 4.70
5. CCOC(=O)CCCn1cnc2cc(O)c(O)cc2c1=O = 4.32
6. CCOC(=O)CCCn1cc(C(C)=O)c2cc(OC)c(OC)cc2c1=O = 4.82
7. CCOC(=O)CCCOc1nc(Cl)nc2cc(OC)c(OC)cc12 = 4.17
8. CCOC(=O)CCCn1cc(Br)c2cc(OC)c(OC)cc2c1=O = 4.29
9. CCOC(=O)CCCN1CNc2ccc(N)cc2C1=O = 5.00

====

target: Tumor necrosis factor (Homo sapiens, UniProt P01375); assay: The compound was tested in vitro for inhibitory activity against Tumor necrosis factor alpha from human PMBC cell line by ELISA test.
testReadout: IC50 (µM)

1. CCOC(=O)CCCn1cc(N)c2cc(OC)c(OC)cc2c1=O = 37
2. CCOC(=O)CCCn1cnc2cc(OC)c(OC)c(Cl)c2c1=O = 22
3. COc1cc2ccnc(Nc3ccc(Cl)cc3)c2cc1OC = 35
4. CCOC(=O)CCCCn1cnc2cc(OC)c(OC)cc2c1=O = 6
5. CCOC(=O)CCCn1ccc2cc(O)c(O)cc2c1=O = 2

====

target: Tumor necrosis factor (Homo sapiens, UniProt P01375); test: The compound was tested in vitro for inhibitory activity against Tumor necrosis factor alpha from human PMBC cell line by ELISA test.; format: functional, cell-based
testReadout: log10 of IC50 (log10 of the value in µM)

1) COc1cc2ccnc(Nc3cccc(Cl)c3)c2cc1OC = 1.52
2) CCOC(=O)CCn1ccc2cc(OC)c(OC)cc2c1=O = 1.70
3) COc1cc2ccn(CCCC(=O)OCCN3CCOCC3)c(=O)c2cc1OC = 1.00
4) CCOC(=O)CCCn1cc([N+](=O)[O-])c2cc(OC)c(OC)cc2c1=O = 1.54
5) CCOC(=O)CCCn1cnc2cc(OC)c(OC)cc2c1=O = 0.48
6) CCCn1c(=O)n(CCCC(=O)OCC)c(=O)c2nccnc21 = 0.48
7) CCOC(=O)CCCn1cc(CN)c2cc(OC)c(OC)cc2c1=O = 1.11
8) CCOC(=O)CCCn1cnc2cc(OC)c(OC)c(N)c2c1=O = 1.18
9) CCOC(=O)CCCn1ccc2ccccc2c1=O = 0.70

====

biological target: Tumor necrosis factor (Homo sapiens, UniProt P01375); experiment: The compound was tested in vitro for inhibitory activity against Tumor necrosis factor alpha from human PMBC cell line by ELISA test.
testReadout: IC50

1) CCOC(=O)CCCn1c(Nc2ccc(Br)cc2)nc2cc(OC)c(OC)cc2c1=O = > 50 µM
2) CCOC(=O)CCCn1cnc2ccc(Br)cc2c1=O = > 25 µM
3) CCOC(=O)CCCn1cnc2cc(F)c(F)cc2c1=O = > 25 µM
4) CCOC(=O)CCCn1cnc2cc(OC)c(OC)c(NC(C)=O)c2c1=O = > 100 µM
5) CCOC(=O)CCCOc1nc(Nc2ccccc2)nc2cc(OC)c(OC)cc12 = > 25 µM
6) CCOC(=O)CCCn1c(Nc2ccc(N=[N+]=[N-])cc2)nc2cc(OC)c(OC)cc2c1=O = > 50 µM
7) CCOC(=O)CCCn1cnc2cc([N+](=O)[O-])ccc2c1=O = > 25 µM
8) COc1cc2ccn(CCCC(=O)O)c(=O)c2cc1OC = > 100 µM
9) CCOC(=O)CCCOc1nc(N(C)C)nc2cc(OC)c(OC)cc12 = > 25 µM
10) CCOC(=O)CCCn1cc(F)c2c(F)c(OC)c(OC)cc2c1=O = > 100 µM
11) CCOC(=O)CCCn1cnc2ccc([N+](=O)[O-])cc2c1=O = > 25 µM

====

molecular target: Tumor necrosis factor (Homo sapiens, UniProt P01375); assay: The compound was tested in vitro for inhibitory activity against Tumor necrosis factor alpha from human PMBC cell line by ELISA test.
testReadout: IC50

1. CNC(=O)CCCn1ccc2cc(OC)c(OC)cc2c1=O = > 100 µM
2. CCOC(=O)CCCn1cnc2ccccc2c1=O = > 25 µM
3. CNC(=O)CCCn1cc(Br)c2cc(OC)c(OC)cc2c1=O = > 100 µM

====

The following compounds are listed with their measured pIC50 values.
biological target: Tumor necrosis factor (Homo sapiens, UniProt P01375); assay: The compound was tested in vitro for inhibitory activity against Tumor necrosis factor alpha from human PMBC cell line by ELISA test.
pIC50: −log10 of the molar value.
testReadout: pIC50

1) CCOC(=O)CCCn1cnc2ccc(F)cc2c1=O = < 4.60
2) COc1cc2ccnc(Nc3ccccc3)c2cc1OC = < 4.00
3) CCOC(=O)CCCn1cnc2cc(Cl)ccc2c1=O = < 4.60
